For DGKα (Homo sapiens (Human)), measured pIC50 is reported for the entries below.
Give bare numbers, as −log10 of the molar value.

CC(c1ccc(CN2CCOC(C)(C)C2)cc1)N1C[C@H](C)N(c2cc(=O)n(C)c3cn(CC#N)nc23)C[C@H]1C (stereo partly shown): 5.79
C[C@@H]1CN(c2cc(=O)n(C)c3cn(CC#N)nc23)[C@@H](C)CN1C(C)(C)c1ccc(F)cc1: 5.09
CC(c1ccc2nccnc2c1)N1C[C@H](C)N(c2nc(=O)n(C)c3cn(CC#N)nc23)C[C@H]1C (stereo partly shown) [Compound A154]: 5.04
CC[C@H]1CN(C(C)c2ccc(OC3CCOCC3)cc2)[C@H](CC)CN1c1cc(=O)n(C)c2cn(CC#N)nc12 (stereo partly shown): 6.79

Can you give me pIC50 for all of these, one by one?
1. [2H]c1nc2ccc(C(C)N3C[C@H](C)N(c4cc(=O)n(C)c5cn(CC#N)nc45)C[C@H]3C)cc2nc1[2H] (stereo partly shown)
2. CC(c1ccc(F)cc1C(F)(F)F)N1C[C@H](C)N(c2cc(=O)n(C)c3cn(CC#N)nc23)C[C@H]1C (single isomer, unassigned) [Compound A236b]

1. 4.79
2. 4.11

Request - read-out pIC50 | tested on DGKα (Homo sapiens (Human)) | molecule CC[C@H]1CN(C(C)c2ccc(F)cc2OC(F)F)[C@H](CC)CN1c1cc(=O)n(C)c2cn(CC#N)nc12 (single isomer, unassigned) [Compound A171a]
5.08
